Assay Details: reversal of MRP1-mediated doxorubicin resistance, pilot screen, H69AR cells, doxorubicin co-treatment (AID 601)
Run Conditions: H69AR cells + 2 uM doxorubicin, CellTiter-Glo, 72 h; measured here: viability with 2 uM doxorubicin; at 10 µM; stronger effect = lower value
The molecules listed here are annotated with their viability.
Kindly provide the numeric value in % only, without the unit symbol.

Example molecules with recorded viability:
CCOc1ccc(N(C(C)=O)C2C=CS(=O)(=O)C2)cc1 (stereo not drawn) : 92.4
Nn1c(SCC(=O)Nc2ccc3c(c2)OCCO3)nnc1C(F)(F)F : 88.8

Challenge: I have this molecule here, CCC(Sc1ccc(C(=O)O)cc1)C(=O)O (stereo not drawn) , and I need its recorded viability.
Response given: 90.2

Challenge: How about this molecule: CCOC(=O)CC(=O)Nc1c(C)cc(C)cc1C
Response given: 91.8

Challenge: How about this molecule: CCCN(CCC)CCNC(=O)C(NS(=O)(=O)c1ccc2c(c1)CCC(=O)N2)c1ccccc1 (stereo not drawn)
Response given: 89

Challenge: How about this molecule: Cc1nc(SCc2ccc(Br)cc2)[nH]c(=O)c1C
Response given: 82.4

Challenge: How about this molecule: Cn1c(-c2ccccc2)c(CCO)c2ccccc21
Response given: 97.4

Challenge: How about this molecule: C/C(=N\O)C(=O)NCc1ccccn1
Response given: 96.4

Challenge: How about this molecule: Cc1ccc(C2c3sc(=O)[nH]c3SC3C(=O)NC(=O)C32)cc1 (stereo not drawn)
Response given: 99.2
